The entries below are paired with their reported Dmax.
# system_tested: CDK9 (Homo sapiens, UniProt P50750)
# Construct: host or cells: HEK293-CDK9-Hibit
# Sequence (P50750 whole entry): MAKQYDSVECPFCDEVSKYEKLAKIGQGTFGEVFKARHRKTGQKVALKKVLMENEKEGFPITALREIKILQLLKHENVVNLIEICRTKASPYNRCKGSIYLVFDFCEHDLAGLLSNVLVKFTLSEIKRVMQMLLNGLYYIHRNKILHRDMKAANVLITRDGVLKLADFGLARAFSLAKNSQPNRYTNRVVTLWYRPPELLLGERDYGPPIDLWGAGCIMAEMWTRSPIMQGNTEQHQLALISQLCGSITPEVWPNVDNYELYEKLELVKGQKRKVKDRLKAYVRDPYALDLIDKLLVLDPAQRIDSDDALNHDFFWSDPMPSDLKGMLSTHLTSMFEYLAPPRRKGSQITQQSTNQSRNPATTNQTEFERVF
# experiment: HiBit Assay Protocol for CDK9 (HIBIT protein quantification, degradation)
# Assay type: cell-based
# measurement_conditions: 6 h, HEK293-CDK9-Hibit cells, compound treatment for 6 hours; read-out: CDK9 HIBIT Protein Quantification Maximum
Entry rule: numbers only, all in %.

Reference set (3 entries):
molecule="CC1CCCC1N1C(=O)C2(CC2)c2cnc(NC3CCN(S(=O)(=O)N4CCC5(CCCN5C(=O)CCCc5ccc6c(c5)n(C)c(=O)n6C5CCC(=O)NC5=O)C4)CC3)nc21 (centres unmarked)" value_observed=17
molecule=Cn1nc(N2CCC(=O)NC2=O)c2ccc(C3CCN(Cc4cccc(S(=O)(=O)N5CCC(Nc6ncc7c(n6)N([C@H]6CCC[C@]6(C)O)C(=O)C76CC6)CC5)c4)CC3)cc21 value_observed=23
molecule=Cn1nc(N2CCC(=O)NC2=O)c2ccc(C3CCN(Cc4cccc(S(=O)(=O)N5CC[C@H](Nc6ncc7c(n6)N([C@@H]6CCC[C@@H](O)C6)C(=O)C76CC6)[C@H](F)C5)c4)CC3)cc21 value_observed=9

From here, focus on the item given below.
What value of Dmax has been recorded for this entry: CC1CCCC1N1C(=O)C2(CC2)c2cnc(NC3CCN(S(=O)(=O)C4CCCN(C(=O)CCCCCCCc5cccc6c5n(C)c(=O)n6C5CCC(=O)NC5=O)C4)CC3)nc21 (centres unmarked) 15

* * *

The entries below are paired with their reported Dmax.
# system_tested: CDK9 (Homo sapiens, UniProt P50750)
# Construct: host or cells: HEK293-CDK9-Hibit
# experiment: HiBit Assay Protocol for CDK9 (HIBIT protein quantification, degradation)
# Type: cell-based
# measurement_conditions: 6 h, HEK293-CDK9-Hibit cells, compound treatment for 6 hours; read-out: CDK9 HIBIT Protein Quantification Maximum
Entry rule: numbers only, all in %.

molecule="CC1CN(Cc2cccc(S(=O)(=O)N3CCC(Nc4ncc5c(n4)N([C@@H]4CCC[C@@H](O)C4)C(=O)C54CC4)CC3)c2)CCN1c1ccc2c(N3CCC(=O)NC3=O)nn(C)c2c1 (some centres unmarked)" observed_property=Dmax value_observed=5
molecule="CN(CCCN1CCC(c2cccc3c2n(C)c(=O)n3C2CCC(=O)NC2=O)CC1)S(=O)(=O)N1CCC(Nc2ncc3c(n2)N([C@@H]2CCC[C@@H](O)C2)C(=O)C32CC2)CC1 (some centres unmarked)" observed_property=Dmax value_observed=56
molecule=Cn1nc(N2CCC(=O)NC2=O)c2ccc(C3CCN(Cc4cccc(S(=O)(=O)N5CC[C@@H](Nc6ncc7c(n6)N([C@@H]6CCC[C@@H](O)C6)C(=O)C76CC6)[C@@H](F)C5)c4)CC3)cc21 observed_property=Dmax value_observed=8
molecule="CC1CCCC1N1C(=O)C2(CC2)c2cnc(NC3CCN(S(=O)(=O)N4CCCN(C(=O)CCCc5ccc6c(c5)n(C)c(=O)n6C5CCC(=O)NC5=O)CC4)CC3)nc21 (centres unmarked)" observed_property=Dmax value_observed=42

From here, focus on the item given below.
What value of Dmax has been recorded for this entry: `Cc1ccc(CN2CCC(c3ccc4c(N5CCC(=O)NC5=O)nn(C)c4c3)CC2)cc1S(=O)(=O)N1CCC(Nc2ncc3c(n2)N([C@@H]2CCC[C@@H](O)C2)C(=O)C32CC2)CC1` 51

* * *

# system_tested: CCNE1 (Homo sapiens, UniProt P24864+P24941)
# Construct: host or cells: HEK293-CCNE1-Hibit
# Sequence (P24864 whole entry, one chain of several): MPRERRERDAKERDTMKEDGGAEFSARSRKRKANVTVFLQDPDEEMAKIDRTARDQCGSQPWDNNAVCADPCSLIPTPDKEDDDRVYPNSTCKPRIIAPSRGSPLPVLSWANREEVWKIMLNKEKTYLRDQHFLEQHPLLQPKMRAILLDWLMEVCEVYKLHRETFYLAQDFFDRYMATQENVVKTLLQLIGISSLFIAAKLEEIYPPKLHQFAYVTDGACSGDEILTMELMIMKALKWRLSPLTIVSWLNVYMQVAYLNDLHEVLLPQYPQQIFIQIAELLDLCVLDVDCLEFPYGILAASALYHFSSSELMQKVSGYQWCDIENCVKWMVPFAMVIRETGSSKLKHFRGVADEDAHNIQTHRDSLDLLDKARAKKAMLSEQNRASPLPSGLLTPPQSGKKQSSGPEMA
# experiment: HiBit Assay Protocol for CCNE1 (HIBIT protein quantification, degradation)
# Type: cell-based
# measurement_conditions: HEK293-CCNE1-Hibit cells, compound treatment for 6 hours, ABS DC50
observed_property: DC50 (nM)
Entry rule: numbers only, all in nM.

Reference set (4 entries):
compound="C[C@@H](c1cccc(S(=O)(=O)N2CCC(Nc3ncc4c(n3)N([C@@H]3CCC[C@@H](O)C3)C(=O)C43CC3)CC2)c1)N1CCC(c2ccc3c(N4CCC(=O)NC4=O)nn(C)c3c2)CC1 (single isomer, unassigned)" observed_property=DC50 value_observed=23.6
compound="CC1CCCC1N1C(=O)C2(CC2)c2cnc(NC3CCN(S(=O)(=O)N4CCC5(CCCN5C(=O)CCCCCc5cccc6c5n(C)c(=O)n6C5CCC(=O)NC5=O)C4)CC3)nc21 (centres unmarked)" observed_property=DC50 value_observed=515
compound=Cc1c(CN2CCC(c3ccc4c(N5CCC(=O)NC5=O)nn(C)c4c3)CC2)cccc1S(=O)(=O)N1CCC(Nc2ncc3c(n2)N([C@@H]2CCC[C@@H](O)C2)C(=O)C32CC2)CC1 observed_property=DC50 value_observed=5.99
compound="C[C@H]1CCC[C@H]1N1C(=O)C2(CC2)c2cnc(NC3CCN(S(=O)(=O)N(C)CCCN4CCC(c5cccc6c5n(C)c(=O)n6C5CCC(=O)NC5=O)CC4)CC3)nc21 (some centres unmarked)" observed_property=DC50 value_observed=17.6

From here, focus on the item given below.
What value of DC50 has been recorded for this entry: `C[C@H](c1cccc(S(=O)(=O)N2CCC(Nc3ncc4c(n3)N([C@@H]3CCC[C@@H](O)C3)C(=O)C43CC3)CC2)c1)N1CCC(c2ccc3c(N4CCC(=O)NC4=O)nn(C)c3c2)CC1` 78.5

* * *

# system_tested: CCNE1 (Homo sapiens)
# Construct: host or cells: HEK293-CCNE1-Hibit
# experiment: HiBit Assay Protocol for CCNE1 (HIBIT protein quantification, degradation)
# Format: cell-based
# measurement_conditions: HEK293-CCNE1-Hibit cells, compound treatment for 6 hours
Define the label as Satisfied when CCNE1 HIBIT Protein Quantification Maximum is strictly less than 40% and as Not satisfied in all remaining cases.

molecule="Cn1nc(N2CCC(=O)NC2=O)c2cccc(C3CCN(Cc4cccc(S(=O)(=O)N5CCC(Nc6ncc7c(n6)N([C@H]6CCC[C@H](O)C6)C(=O)C76CC6)CC5)c4)CC3)c21 (stereo in doubt)" category_label="Not satisfied"

Strictly below 40% in CCNE1 HIBIT Protein Quantification Maximum? CC1CCCC1N1C(=O)C2(CC2)c2cnc(NC3CCN(S(=O)(=O)N4CCN(C(=O)CCCCCCCc5cccc6c5n(C)c(=O)n6C5CCC(=O)NC5=O)CC4)CC3)nc21 (stereo not shown) Satisfied

Strictly below 40% in CCNE1 HIBIT Protein Quantification Maximum? Cn1c(=O)n(C2CCC(=O)NC2=O)c2ccc(C3CCN(Cc4cccc(S(=O)(=O)N5CCC(Nc6ncc7c(n6)N([C@@H]6CCC[C@@H](O)C6)C(=O)C76CC6)CC5)c4)CC3)cc21 (stereo partly shown) Satisfied

Strictly below 40% in CCNE1 HIBIT Protein Quantification Maximum? `C[C@@H](c1cccc(S(=O)(=O)N2CC[C@H](Nc3ncc4c(n3)N([C@@H]3CCC[C@@H](O)C3)C(=O)C43CC3)[C@H](F)C2)c1)N1CCN(c2ccc3c(N4CCC(=O)NC4=O)nn(C)c3c2)CC1` Satisfied

Strictly below 40% in CCNE1 HIBIT Protein Quantification Maximum? CC1CCCC1N1C(=O)C2(CC2)c2cnc(NC3CCN(S(=O)(=O)N4CCC5(CCCN5C(=O)CCCc5cccc6c5n(C)c(=O)n6C5CCC(=O)NC5=O)C4)CC3)nc21 (stereo not shown) Satisfied

Strictly below 40% in CCNE1 HIBIT Protein Quantification Maximum? Cn1nc(N2CCC(=O)NC2=O)c2ccc(C3CCN(Cc4cncc(S(=O)(=O)N5CCC(Nc6ncc7c(n6)N([C@H]6CCC[C@H](O)C6)C(=O)C76CC6)CC5)c4)CC3)cc21 (stereo in doubt) Not satisfied

Strictly below 40% in CCNE1 HIBIT Protein Quantification Maximum? `CC(C)[C@@H]1CN([C@@H](C)c2cccc(S(=O)(=O)N3CC[C@H](Nc4ncc5c(n4)N([C@@H]4CCC[C@@H](O)C4)C(=O)C54CC4)[C@H](F)C3)c2)CCN1c1ccc2c(N3CCC(=O)NC3=O)nn(C)c2c1` Satisfied

Strictly below 40% in CCNE1 HIBIT Protein Quantification Maximum? CC1CCCC1N1C(=O)C2(CC2)c2cnc(NC3CCN(S(=O)(=O)N4CCCN(C(=O)CCCCCc5cccc6c5n(C)c(=O)n6C5CCC(=O)NC5=O)CC4)CC3)nc21 (stereo not shown) Not satisfied

Strictly below 40% in CCNE1 HIBIT Protein Quantification Maximum? Cn1c(=O)n(C2CCC(=O)NC2=O)c2cccc(N3CCC(Cn4cc(S(=O)(=O)N5CCC(Nc6ncc7c(n6)N([C@@H]6CCC[C@@H](O)C6)C(=O)C76CC6)CC5)cn4)CC3)c21 (stereo partly shown) Satisfied

Strictly below 40% in CCNE1 HIBIT Protein Quantification Maximum? `Cn1nc(N2CCC(=O)NC2=O)c2ccc(C3CCN(Cc4ccnc(S(=O)(=O)N5CCC(Nc6ncc7c(n6)N([C@@H]6CCC[C@@H](O)C6)C(=O)C76CC6)CC5)c4)CC3)cc21` Not satisfied
